Tested on: sensory panelists
Test: Sweetness modifier test, control vs sample with 30 ppm rebaudioside J (Example 6A)
Type: in vivo, human
Settings: sweetener plus 30 ppm rebaudioside J vs sweetener alone; about 5% SEV / 5 degrees Brix; pH 3.1 phosphate buffer; 13 to 16 panelists
Experimental: The ability of rebaudioside J to modify the sweetness of natural and artificial sweeteners was assessed by comparing the sweetness of control samples without rebaudioside J to the sweetness of samples containing a mixture of the natural or artificial sweetener being tested and rebaudioside J. Control solutions were prepared by dissolving sucrose, HFCS, acesulfame-K, aspartame, and sucralose in pH 3.1 phosphate buffer. […]
Where a SMILES comes first, the peptide text is derived from it.
READOUT NAME: d' Score
Please state the value as a number alone, without comment.

OC[C@H]1O[C@H](O[C@]2(CCl)O[C@H](CCl)[C@@H](O)[C@@H]2O)[C@H](O)[C@@H](O)[C@H]1Cl = 2.44
COC(=O)[C@H](Cc1ccccc1)NC(=O)[C@@H](N)CC(=O)O [Aspartame, aspartame] (H-Asp-Phe-OMe) = 2.13
CC1=CC(=O)NS(=O)(=O)O1 = 2.30

compound OC[C@H]1O[C@@](CO)(O[C@H]2O[C@H](CO)[C@@H](O)[C@H](O)[C@H]2O)[C@@H](O)[C@@H]1O , d' Score observed: 2.00

The reported measurements were obtained from patent US20250031734A1.
